src = patent EP4644419A1

Molecular target: T1, human CD112R on antigen-specific CD8+ T cells (human, UniProt Q6DKI7 1-326)
T1 sequence (looked up): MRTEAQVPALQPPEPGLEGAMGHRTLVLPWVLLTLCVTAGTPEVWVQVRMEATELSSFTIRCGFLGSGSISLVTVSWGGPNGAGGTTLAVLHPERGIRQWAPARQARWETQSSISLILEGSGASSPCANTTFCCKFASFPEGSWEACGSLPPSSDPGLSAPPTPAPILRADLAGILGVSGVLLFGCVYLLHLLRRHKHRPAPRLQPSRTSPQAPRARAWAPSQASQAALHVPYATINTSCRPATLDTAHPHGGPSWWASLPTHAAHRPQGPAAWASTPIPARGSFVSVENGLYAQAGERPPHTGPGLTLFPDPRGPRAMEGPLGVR
Test: cell-based or functional assay
Threshold-based label: IFN-γ(pg/ml) at 5µg/ml antibody under 800 pg/mL gives true (1), IFN-γ(pg/ml) at 5µg/ml antibody not under 800 pg/mL gives false (0).

Completed entries (count: 8):
Identify whether the binder C14 (antibody, human IgG1, kappa, V domains shown) VH: QVQLQQPGAELVRPGTSVKLSCKASGNTFTSYWMHWVKQRPGQGHEWIGVIDASDSNTKYNQKFKGKATLTVDTSSSTAYMQLSSLTSEDSAVYYCARYYSGSSYGLDYWGQGTTLTVSS VL: DIQMTQTASSLSASLGDRVTISCRASQDISNYLNWYQQKPDGTVKLLIYYTSRLHSGVPSRFSGSGSGTDFSLTITHLEQEDIASYFCQQGNMFPPTFGGGTKLEIKR records IFN-γ(pg/ml) at 5µg/ml antibody below 800 pg/mL. true (1)

State whether 800 pg/mL exceeds IFN-γ(pg/ml) at 5µg/ml antibody recorded for C1 (antibody, human IgG1, kappa, V domains shown) VH: QVHLQQSGPELVKPGASLKISCKASGYTFTDYYLNWVKQRPGQGLEWIGWIFPGSESTFYNEKFKGKATLTVDKSSSTAYMLLNSLTSEDSAVYFCTRDGGLRGPFDYWGQGTTLTVSS VL: DIQLTQSPSSLSASLGGKVTITCKASQDINKYIAWCQHKPGKGPRLLIHYTSTLHPGIPSRFSGSGSGRDYSFSISNLEPEDSATYYCLQYDYLLTFGGGTKLEIKR . true (1)

Hi there! Is IFN-γ(pg/ml) at 5µg/ml antibody for C41 (antibody, human IgG1, kappa, V domains shown) VH: EVQLQQSGPELVKPGASVKISCKASGNTFTDYYINWVKQSHGKSLEWIGDIEPNNGGTNYNQKFKGKATLTVDKSSSTAYMELRSLTSEDSAIYYCATLYFDYWGQGTTLTVSS VL: DIVMTQSPSSLSVSAGEKVTMSCKSSQSLLNSGNQKNYLAWYQQKPGQPPKLLIYGASTRESGVPDRFTGSGSGTDFTLTISSVQAEDLAVYYCQNDHSYPFTFGSGTKLEIKR below 800 pg/mL, do you know? true (1)

Determine if C3 (antibody, human IgG1, kappa, V domains shown) VH: QVQLQQSGPELVKPGASVKISCRSSGYTFTDYYINWVKQRPGQGLEWIGWIFPGSDYTYYNEKFKGKATLTVDKSSTTAYMLLSSLTSEDSAVYFCARDGGLRGPFDYWGQGTTLTVSS VL: DIQMTQSPSSLSASLGGKVTITCKASQDINKYIAWYQQKPGKGPRLLIHYTSTLQPGIPSRFSGSGSGRNSSFSISNLEPEDIATYYCLQYDNLHTFGGGTKLEIKR shows IFN-γ(pg/ml) at 5µg/ml antibody strictly lower than 800 pg/mL. true (1)

Hi there! Is IFN-γ(pg/ml) at 5µg/ml antibody for C20 (antibody, human IgG1, kappa, V domains shown) VH: EVQLVESGGGLVKPGGSLKLSCAASGFTFSDSYMCWVRQTPEKRLEWVATISDAGGYTYYPDSVKGRFTISRDNDRNNLYLQMSGLKSEDTAVYYCGREDLWGQGTSVTVSS VL: DIQMTQSPSSLSASLGERVSLTCRASQDIGRSLNWLQQEPDGTIKRLIYATSRLDSGVPKRFSGSRSGSDYSLTISSLESEDFVDYYCLQYASSPYTFGGGTKLEIKR below 800 pg/mL, do you know? false (0)

Decide: IFN-γ(pg/ml) at 5µg/ml antibody of C4 (antibody, human IgG1, kappa, V domains shown) VH: EVQLQQSGPELVKPGASVKISCKASGYTFTDYFMNWVKQSHGKSLEWIGDIIPNNDSPNYNQKFKGKATLTVDKSSNTAYMELRSLTSEDSAVYYCASGYFDVWGTGTTVTVSS VL: DIVMTQSPSSLSVSAGEKVTMSCKSSQSLLNSGNQKNFLAWYQQKPGQPPKLLIYGTSTRESGVPDRFTGSGSGTDFTLTISSVQAEDLAVYYCQNDHSYPWTFGGGTKLEIKR strictly below 800 pg/mL? true (1)

API: query returns whether the binder falls strictly under 800 pg/mL in IFN-γ(pg/ml) at 5µg/ml antibody. Query: C11 (antibody, human IgG1, kappa, V domains shown) VH: EVQLQQSGPELVKPGASVKISCKASGYTFTDYFMNWVRQSHGKSLEWIGDIHPNNGSPNYNQKFKGKATLTVGKSSSTAYMELRSLTSEDSAVYYCATGYFDVWGTGTTVTVSS VL: DIVMTQSPSSLSVSAGEKVTMSCKSSQSLLNSGNQKNYLAWYQQKPGQPPKLLIYGASTRESGVPDRFTGSGSGTDFTLTISSVQAEDLAVYYCQNDHSYPWTFGGGTKLEIKR true (1)

Here's an entry: C19 (antibody, human IgG1, kappa, V domains shown) VH: EVQLVESGGGLVKPGGSLKLSCAASGFTFSDYYMYWVRQTPEKRLEWVATISDAGGYTYYPDSVKGRFTISRDNARNSLYLQMSSLKSEDTAMYFCGREDLWGQGTSVTVSS VL: DIQMTQSPSSLSASLGERVSLTCRASQDIGYSLNWLQQEPDGSVRRLIYATSRLDSGVPKRFSGSRSGSDYSLTISSLESEDFVDYYCLQYASFPYTFGGGTKLEIKR . Is its IFN-γ(pg/ml) at 5µg/ml antibody below 800 pg/mL? true (1)

Kindly review the next binder as well.
Item C7 (antibody, human IgG1, kappa, V domains shown) VH: EVQLQQSGPELVKPGASVKISCKASGYTLTDYYMNWVKQSHGKSLEWIGDINPNNGGTNFNQKFKGKATLTIDKSSSTTYMELRSLTSEDSAVYYCASLFFDYWGQGTTLTVSS VL: DIVMTQSPSSLSVSAGEKVTMSCKSSQSLLNSGNQKNYLAWYQQKPGQPPKLLIYGASTRESGVPDRFTGSGSGTDFTLTISSVQAEDLALYYCQNAHSSPYTFGGGTKLEIKR : IFN-γ(pg/ml) at 5µg/ml antibody beneath 800 pg/mL, strictly? false (0)
